molecular target: human GluN1/GluN2B NMDA receptors (Homo sapiens, UniProt Q05586+Q13224); construct: expressed in transfected cells; assay: Calcium flux (FLIPR) assay on cloned human NR1/GluN2B ion channels expressed in mammalian cells, standard assay; type: cell-based; conditions: glutamate ~EC40 and 10 μM glycine, stable cell line with Tet-On induced expression
Sequence (Q13224 27-1484, other chains not shown): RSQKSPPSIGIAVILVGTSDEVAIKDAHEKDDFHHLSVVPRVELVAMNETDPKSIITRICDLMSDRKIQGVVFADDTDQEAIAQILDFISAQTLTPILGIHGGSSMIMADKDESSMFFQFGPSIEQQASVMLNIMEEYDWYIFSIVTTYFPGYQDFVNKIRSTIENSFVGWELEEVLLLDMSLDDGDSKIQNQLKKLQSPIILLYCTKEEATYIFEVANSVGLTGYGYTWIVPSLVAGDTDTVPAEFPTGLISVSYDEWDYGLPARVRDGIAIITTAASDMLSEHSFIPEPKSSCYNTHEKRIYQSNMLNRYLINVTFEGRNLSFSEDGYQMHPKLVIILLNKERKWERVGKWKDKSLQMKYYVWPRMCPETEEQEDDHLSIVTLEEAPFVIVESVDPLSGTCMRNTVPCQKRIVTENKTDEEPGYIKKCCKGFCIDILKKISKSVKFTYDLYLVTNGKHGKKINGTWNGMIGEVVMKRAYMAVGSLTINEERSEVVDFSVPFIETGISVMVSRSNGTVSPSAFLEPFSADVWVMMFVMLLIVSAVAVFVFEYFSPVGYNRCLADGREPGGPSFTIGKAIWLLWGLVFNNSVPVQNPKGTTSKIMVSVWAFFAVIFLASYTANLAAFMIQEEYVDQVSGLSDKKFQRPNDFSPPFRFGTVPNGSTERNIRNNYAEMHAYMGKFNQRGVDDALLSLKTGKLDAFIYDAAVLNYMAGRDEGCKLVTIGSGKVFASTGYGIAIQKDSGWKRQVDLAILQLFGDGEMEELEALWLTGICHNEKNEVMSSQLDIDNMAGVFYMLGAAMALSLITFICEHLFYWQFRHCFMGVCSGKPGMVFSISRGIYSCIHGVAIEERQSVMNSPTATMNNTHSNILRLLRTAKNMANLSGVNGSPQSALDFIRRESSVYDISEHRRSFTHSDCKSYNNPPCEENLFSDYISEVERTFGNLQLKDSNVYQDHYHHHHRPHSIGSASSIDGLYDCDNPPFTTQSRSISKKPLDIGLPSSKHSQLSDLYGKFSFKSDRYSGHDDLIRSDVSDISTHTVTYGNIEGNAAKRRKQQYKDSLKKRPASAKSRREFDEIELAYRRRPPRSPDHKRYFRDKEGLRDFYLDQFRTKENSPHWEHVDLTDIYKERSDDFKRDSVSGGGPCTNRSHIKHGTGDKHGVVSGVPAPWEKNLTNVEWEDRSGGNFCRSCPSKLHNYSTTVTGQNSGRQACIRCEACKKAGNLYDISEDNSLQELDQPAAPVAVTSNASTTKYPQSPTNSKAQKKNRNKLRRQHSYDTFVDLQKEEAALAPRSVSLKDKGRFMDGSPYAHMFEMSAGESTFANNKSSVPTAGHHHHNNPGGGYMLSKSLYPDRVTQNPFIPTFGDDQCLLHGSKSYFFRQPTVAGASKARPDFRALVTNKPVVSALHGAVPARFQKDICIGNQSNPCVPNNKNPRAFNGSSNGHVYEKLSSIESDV
Where a name gives a salt, the structure may show the parent alone.
property: IC50 (µM)

Some compounds with known IC50 results, for comparison:
compound: FC(F)(F)c1cccc(-c2cnc3cnn(CC4CCO4)c3c2)c1 (racemic) [Example 17]
IC50 [µM]: 0.085

compound: CCC(O)Cn1ncc2ncc(-c3ccc(F)c(C(F)F)c3)cc21 (racemic) [Example 5]
IC50 [µM]: 0.048

compound: Cc1cc(F)ccc1-c1cnc2cnn(CC(=O)C3CC3)c2c1 [Example 72]
IC50 [µM]: 0.199

compound: O=C(Cn1ncc2ncc(-c3cccc(C(F)(F)F)c3)cc21)C1CC1 [Example 62]
IC50 [µM]: 0.046

compound: CCC(O)Cn1ncc2ncc(-c3ccc(F)c(F)c3)cc21 (racemic) [Example 91]
IC50 [µM]: 0.526

a = COCCC(O)Cn1ncc2ncc(-c3cccc(C(F)(F)F)c3)cc21 (racemic) [Example 90]
b = Cc1cc(-c2cnc3cnn(CC(=O)C(C)C)c3c2)ccc1F [Example 7]
c = O=C(Cn1ncc2ncc(-c3cccc(C(F)F)c3)cc21)C1CC1 [Example 61]
d = CC(=O)Cn1ncc2ncc(-c3ccc(F)c(OC(F)F)c3)cc21 [Example 25]
Data request: Hello, I need these entries ordered by IC50, highest reading first. Thanks! // rank by listing labels in the order requested
Data returned: a, d, b, c

I = O=C(Cn1ncc2ncc(-c3cc(F)c(F)c(F)c3)cc21)C1CC1 [Example 9]
II = CCN1C[C@@H](Cn2ncc3ncc(-c4ccc(F)c(C(F)F)c4)cc32)OC1=O [Example 132]
III = CCN1CC(Cn2ncc3ncc(-c4ccc(F)c(C(F)F)c4)cc32)OC1=O (racemic) [Example 131]
IV = CCC(=O)Cn1ncc2ncc(-c3ccc(F)c(C)c3)cc21 [Example 32, Trifluoroacetate Salt]
V = CC(C)C(O)Cn1ncc2ncc(-c3cc(F)c(F)c(F)c3)cc21 (racemic) [Example 97]
Data request: Hello, I need these entries ordered by IC50, highest reading first. Thanks! // rank by listing labels in the order requested
Data returned: II, V, III, I, IV
(II: 1.43 µM, V: 0.591 µM, III: 0.193 µM, I: 0.03 µM, IV: 0.012 µM)

----------
target: human GluN1/GluN2B NMDA receptors (Homo sapiens, UniProt Q05586+Q13224); experiment: Calcium flux (FLIPR) assay on cloned human NR1/GluN2B ion channels expressed in mammalian cells, standard assay; conditions: glutamate ~EC40 and 10 μM glycine, stable cell line with Tet-On induced expression
property: IC50 (nM)

molecule: Cc1cc(-c2cnc3cnn(CC(O)C4CC4)c3c2)ccc1F (racemic) [Example 101]
valueUnits: nM
IC50: 167

1 = O=C(Cn1ncc2ncc(-c3cccc(F)c3F)cc21)C1CC1 [Example 64]
2 = CN1CC[C@H](Cn2ncc3ncc(-c4ccc(F)c(C(F)F)c4)cc32)C1=O [Example 118]
Data request: Task for the reader: decide whether 1 or 2 has the larger IC50. Pick one and reply with its label.
Data returned: 2

----------
target: human GluN1/GluN2B NMDA receptors (Homo sapiens, UniProt Q05586+Q13224); assay: Calcium flux (FLIPR) assay on cloned human NR1/GluN2B ion channels expressed in mammalian cells, standard assay; details: glutamate ~EC40 and 10 μM glycine, stable cell line with Tet-On induced expression
property: IC50 (nM)

Some compounds with known IC50 results, for comparison:
structureSmiles: O=C(Cn1ncc2ncc(-c3ccc(F)c(C(F)F)c3)cc21)c1ccsc1
valueUnits: nM
IC50: 100
--
structureSmiles: CCC(=O)Cn1ncc2ncc(-c3cccc(F)c3F)cc21
valueUnits: nM
IC50: 46
--
structureSmiles: CC(=O)Cn1ncc2ncc(-c3ccc(F)c(C)c3)cc21
valueUnits: nM
IC50: 15

1 = CC(C)C(=O)Cn1ncc2ncc(-c3cccc(C(F)(F)F)c3)cc21
2 = CCC(F)(F)Cn1ncc2ncc(-c3ccc(F)c(C(F)F)c3)cc21
Data request: Task for the reader: decide whether 1 or 2 has the larger IC50. Pick one and reply with its label.
Data returned: 2
(2: 89 nM, 1: 61 nM)

----------
Molecular target: human GluN1/GluN2B NMDA receptors (Homo sapiens, UniProt Q05586+Q13224)
Test: Calcium flux (FLIPR) assay on cloned human NR1/GluN2B ion channels expressed in mammalian cells, standard assay
Details: glutamate ~EC40 and 10 μM glycine, stable cell line with Tet-On induced expression
Experimental: Effects of Test Articles on Cloned Human NR1/GluN2B Ion Channels Expressed in Mammalian Cells NMDA receptors are ion channels that are highly permeable to Ca^2+ ions, rendering it possible to monitor NMDA receptor function using cell-based calcium flux assay. […] The time course of the changes in intracellular calcium is measured using a fluorescent dye and a FLIPR (Fluorometric Imaging Plate Reader) device. […]
property: IC50 (nM)

Some compounds with known IC50 results, for comparison:
compound: CCC(=O)Cn1ncc2ncc(-c3ccc(F)c(F)c3F)cc21
valueUnits: nM
assayValue: 28
--
compound: Cc1cc(F)ccc1-c1cnc2cnn(CC(=O)C(C)C)c2c1
valueUnits: nM
assayValue: 90
--
compound: CCC(=O)Cn1ncc2ncc(-c3cccc(C(F)F)c3)cc21
valueUnits: nM
assayValue: 27
--
compound: O=C(Cn1ncc2ncc(-c3cc(F)cc(F)c3)cc21)C1CC1
valueUnits: nM
assayValue: 19

I = CC[S+]([O-])Cn1ncc2ncc(-c3cccc(F)c3)cc21 (racemic)
II = CCC(=O)Cn1ncc2ncc(-c3ccc(F)c(C(F)F)c3)cc21
Data request: Task for the reader: decide whether I or II has the larger IC50. Pick one and reply with its label.
Data returned: I

----------
biological target: human GluN1/GluN2B NMDA receptors (Homo sapiens, UniProt Q05586+Q13224); test: Calcium flux (FLIPR) assay on cloned human NR1/GluN2B ion channels expressed in mammalian cells, standard assay; settings: glutamate ~EC40 and 10 μM glycine, stable cell line with Tet-On induced expression
pIC50: −log10 of the molar value.
property: pIC50

Some compounds with known pIC50 results, for comparison:
compound: CN1C[C@H](Cn2ncc3ncc(-c4ccc(F)c(C(F)F)c4)cc32)CC1=O
pIC50: 6.92

compound: CC[S+]([O-])Cn1ncc2ncc(-c3ccc(F)c(C(F)F)c3)cc21 (racemic) [Example 83]
pIC50: 7.47

compound: Cc1ccc(-c2cnc3cnn(CC(=O)C4CC4)c3c2)s1
pIC50: 7.82

compound: CCC(=O)Cn1ncc2ncc(-c3cccc(C(C)(F)F)c3)cc21
pIC50: 7.46

compound: CCC(O)Cn1ncc2ncc(-c3cccc(C(C)(F)F)c3)cc21 (racemic)
pIC50: 6.57

compound: O=C(Cn1ncc2ncc(-c3ccccc3F)cc21)C1CC1
pIC50: 6.83

compound: CCC(O)Cn1nc(F)c2ncc(-c3ccc(F)c(F)c3)cc21 (racemic)
pIC50: 6.02

compound: Fc1ccc(-c2cnc3cnn(CC4CCOC4)c3c2)cc1C(F)F (racemic)
pIC50: 7.64

P = CN1CC(Cn2ncc3ncc(-c4ccc(F)c(OC(F)F)c4)cc32)CC1=O (racemic)
Q = O=C(Cn1ncc2ncc(-c3ccc(F)c(C(F)F)c3)cc21)c1ccccn1
R = Cc1cccc(-c2cnc3cnn(CC(=O)C4CC4)c3c2)c1F
S = O=C(Cn1ncc2ncc(-c3ccc(F)c(C(F)F)c3)cc21)C1CC1
T = CN1C(=O)OCC1Cn1ncc2ncc(-c3ccc(F)c(OC(F)F)c3)cc21 (racemic)
Data request: Hello, I need these entries ordered by pIC50, highest reading first. Thanks! // rank by listing labels in the order requested
Data returned: R, S, Q, P, T

----------
Target: human GluN1/GluN2B NMDA receptors (Homo sapiens, UniProt Q05586+Q13224)
Assay: Calcium flux (FLIPR) assay on cloned human NR1/GluN2B ion channels expressed in mammalian cells, standard assay
Settings: glutamate ~EC40 and 10 μM glycine, stable cell line with Tet-On induced expression
Method: Effects of Test Articles on Cloned Human NR1/GluN2B Ion Channels Expressed in Mammalian Cells NMDA receptors are ion channels that are highly permeable to Ca^2+ ions, rendering it possible to monitor NMDA receptor function using cell-based calcium flux assay. […] The time course of the changes in intracellular calcium is measured using a fluorescent dye and a FLIPR (Fluorometric Imaging Plate Reader) device. […]
pIC50: −log10 of the molar value.
property: pIC50

compound: CC(=O)Cn1ncc2ncc(-c3ccc(F)c(C(F)F)c3)cc21 [Example 23]
pIC50: 7.85

P = CCC(=O)Cn1ncc2ncc(-c3ccc(F)c(OC(F)F)c3)cc21 [Example 40]
Q = Cc1cc(-c2cnc3cnn(CC(=O)C4CC4)c3c2)ccc1F [Example 69]
R = CC1(Cn2ncc3ncc(-c4ccc(F)c(C(F)F)c4)cc32)COC1 [Example 110]
Data request: Hello, I need these entries ordered by pIC50, highest reading first. Thanks! // rank by listing labels in the order requested
Data returned: P, Q, R
